- tested_target: Activated human plasma kallikrein (Enzyme Research Laboratories, HPKa 1303) (human, UniProt P03952 20-638)
- Sequence (P03952 20-638 limits assumed): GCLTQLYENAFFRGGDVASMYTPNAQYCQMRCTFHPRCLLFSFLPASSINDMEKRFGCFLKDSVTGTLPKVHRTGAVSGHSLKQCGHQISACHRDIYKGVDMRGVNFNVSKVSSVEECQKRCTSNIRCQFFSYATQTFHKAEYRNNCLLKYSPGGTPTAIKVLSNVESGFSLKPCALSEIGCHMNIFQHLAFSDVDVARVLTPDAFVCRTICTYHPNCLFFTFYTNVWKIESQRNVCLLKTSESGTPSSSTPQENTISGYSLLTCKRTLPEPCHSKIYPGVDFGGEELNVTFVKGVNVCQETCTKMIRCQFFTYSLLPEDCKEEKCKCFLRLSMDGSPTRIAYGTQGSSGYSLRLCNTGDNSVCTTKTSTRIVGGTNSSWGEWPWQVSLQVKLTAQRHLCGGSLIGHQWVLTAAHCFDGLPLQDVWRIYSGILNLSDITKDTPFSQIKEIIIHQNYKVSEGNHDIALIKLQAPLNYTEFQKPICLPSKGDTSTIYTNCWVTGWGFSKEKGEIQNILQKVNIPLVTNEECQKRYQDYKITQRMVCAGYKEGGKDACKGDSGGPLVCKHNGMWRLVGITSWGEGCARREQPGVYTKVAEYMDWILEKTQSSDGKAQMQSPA
- assay_method_text: cell-based or functional assay
Numbered stars: 1 amine (or outer) side, 2 acyl side, 3 side chain; on linkers, the order of the positions; unused ones are H or OH. Bridge positions count the residues as written; N and C are the ends. Square brackets hold non-standard residues; d marks the D form. Primed or numbered codes have the meaning given here. * marks the point of attachment. N‑ω hexylcarbamate = hexyl carbamate on the ω-nitrogen of the arginine side chain, CCCCCCOC(=O)*; ABP = 2-amino-3-(5-bromothiophen-2-yl)propanoic acid, O=C([C@H](Cc1ccc(Br)s1)N[*:1])[*:2]; mXylyl = xylyl linker from dibromoxylene joining the two cysteines; 4‑BZA = 2-amino-3-(4-carbamimidoylphenyl)propanoic acid; Trp(5-Cl) = N[C@@H](Cc1c[nH]c2ccc(Cl)cc12)C(=O)O; des‑NH2 = missing amino-terminal amine group; Phg(2-OMe)′ = not defined here; dPhg = N[C@@H](C(=O)O)c1ccccc1; Chg = N[C@H](C(=O)O)C1CCCCC1; Phg = N[C@H](C(=O)O)c1ccccc1; Tle = CC(C)(C)[C@H](N)C(=O)O; NMeS = CN[C@@H](CO)C(=O)O; Heptanoyl = CCCCCCC(=O)*; Orn = NCCC[C@H](N)C(=O)O; Ac5c = NC1(C(=O)O)CCCC1; Dab = NCC[C@H](N)C(=O)O; Thp = NC1(C(=O)O)CCOCC1; Ac4c = NC1(C(=O)O)CCC1; Aib = CC(C)(N)C(=O)O; Mpa = O=C(O)CCS
readout_kind: Avg. IC50

Query: Avg. IC50 lookup needed for CXAGCRV ([mXylyl(1,5)](des-NH2)C-(Cyclo-L)-A-Chg-CR-V-NHCH3) [R2178] , thanks.
Response: 3.2 nM

Query: Avg. IC50 for {des‑NH2}-CP[dPhg]CR[Tle]-NH2 (linker 1-4 via mXylyl) [R2187] ?
Response: > 4700 nM

Query: Dear colleague, I am looking for the recorded Avg. IC50 of the following binder: {des‑NH2}-CP[Phg(2-OMe)′]CR[Tle]-NH2 (linker 1-4 via mXylyl) [R2189]
Response: 39.8 nM

Query: Look up Avg. IC50 for this binder: {des‑NH2}-C[NMeS][Chg]CR[Tle]-NH2 (linker 1-4 via mXylyl) [R2165]
Response: 82.1 nM

Query: Which Avg. IC50 value is on record for [Mpa][Aib]A[Chg]CR[Tle]LRYSE(PEG 40 kDa)-NH2 (linker 1-5 via mXylyl) [R2191] ?
Response: 5.5 nM

Query: Need Avg. IC50 of Heptanoyl-C[dA][NMeS][Chg]CR[Tle]-NH2 (linker 1-5 via mXylyl) [R2148] , thanks.
Response: 28.8 nM

Query: Need Avg. IC50 of [Mpa][Ac5c][Chg]CR[Tle]-NH2 (linker 1-4 via mXylyl) [R2168] , thanks.
Response: 11.3 nM

Query: Give its Avg. IC50 value. Item: {des‑NH2}-C[Ac5c]A[dPhg]CR[Tle]-NH2 (linker 1-5 via mXylyl) [R2149]
Response: 177 nM

Query: Query (binder): {des‑NH2}-CS[Chg]CR[Tle]-NH2 (linker 1-4 via mXylyl) [R2164] ; field requested: Avg. IC50
Response: 10.1 nM

Query: Quick one: Avg. IC50 for [Mpa][Thp]A[Chg]C[4‑BZA](N‑hexylcarbamate)V-NH2 (linker 1-5 via mXylyl) [R2185] ?
Response: > 100000 nM

Query: Name the reported Avg. IC50 value associated with the binder [Mpa][Ac5c]A[Chg]CR[Tle]-NH2 (linker 1-5 via mXylyl) [R2169]
Response: 1.9 nM

Query: Please look up its Avg. IC50: {des‑NH2}-CP[Chg]CR(N‑ω hexylcarbamate)[Tle]-NH2 (linker 1-4 via mXylyl) [R2186]
Response: > 100000 nM

Query: Name the reported Avg. IC50 value associated with the binder {des‑NH2}-CP[dPhg]C[Dab][Tle]-NH2 (bridge 1-4; not fully specified (residue 1, bridges); printed as [mXylyl(1,4)](des-NH2)C-P-(D-Phg)-C-Dab-Tbg-NH2) [R2212]
Response: > 100000 nM

Query: Quick check: Avg. IC50 of [Mpa]ESIC[Orn]V-NH2 (linker 1-5 via mXylyl) [R2172] ?
Response: > 100000 nM

Query: May I ask what Avg. IC50 has been recorded for [Mpa][Ac4c][Chg]CR[Tle]-NH2 (linker 1-4 via mXylyl) [R2181] ?
Response: 18.5 nM

Query: Record request: Avg. IC50 value, item {des‑NH2}-CP[Chg]CR[Tle]-NH2 (linker 1-4 via mXylyl) [R2167]
Response: 10.7 nM

Query: What Avg. IC50 value was documented for this binder, {des‑NH2}-CP[Chg]CR[Tle]-OH (linker 1-4 via mXylyl) [R2214] ?
Response: 4000 nM

Query: Return reported Avg. IC50; argument: {des‑NH2}-C[Aib]A[Chg]CR-OH (linker 1-5 via mXylyl) [R2153]
Response: > 8880 nM

Query: Name the reported Avg. IC50 value associated with the binder {des‑NH2}-CP[Phg]CR[Tle]L-OH (linker 1-4 via mXylyl) [R2202]
Response: 58.8 nM

Query: What value of Avg. IC50 has been recorded for this entry: {des‑NH2}-CP[Phg]C[ABP][Tle]-NH2 (bridge 1-4; not fully specified (residue 1, bridges); printed as [mXylyl(1,4)(des-NH2)C-P-Phg-C-ABP-Tbg-NH2) [R2219]
Response: > 100000 nM

Query: Which Avg. IC50 value is on record for {des‑NH2}-CP[Phg]C[Trp(5-Cl)][Tle]-NH2 (linker 1-4 via mXylyl) [R2209] ?
Response: > 75000 nM
